Data provenance: patent US20230398224A1

Assay system: T1, Purified FHR3 with C-terminal biotinylated Avitag (human, UniProt Q02985 19-330, biotin on the C-terminal Avitag)
T1 construct: Immobilised on a NeutrAvidin NLC chip for SPR; also called complement factor H-related protein 3; hFHR3; not shown: C-terminal biotinylated Avitag
T1 sequence (looked up): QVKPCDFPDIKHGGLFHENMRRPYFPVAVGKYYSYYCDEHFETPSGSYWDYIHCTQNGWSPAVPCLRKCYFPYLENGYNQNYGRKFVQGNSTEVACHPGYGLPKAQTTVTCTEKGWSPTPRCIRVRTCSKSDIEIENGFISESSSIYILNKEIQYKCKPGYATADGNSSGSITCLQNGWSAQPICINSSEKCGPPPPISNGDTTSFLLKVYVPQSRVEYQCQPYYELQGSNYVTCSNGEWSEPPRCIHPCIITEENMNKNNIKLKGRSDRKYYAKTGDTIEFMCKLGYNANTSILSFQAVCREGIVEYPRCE
Measurement description: SPR, ProteOn XPR36; biotinylated FHR3 on NeutrAvidin NLC chip
Positions of bridges follow the written chain, without caps; N, C: chain ends. Non-standard residues stand in square brackets, D forms with d. NMeF = CN[C@@H](Cc1ccccc1)C(=O)O; Tic = O=C(O)[C@@H]1Cc2ccccc2CN1; Sar = CNCC(=O)O
In this section, each of the binders is paired with its reported Kd.
Please state the value followed by its unit.

{CH2CO}-FR[NMeF]SVNYKRS[Tic]N[NMeF]CG-NH2 (thioether N-14; SMILES CC(C)[C@@H]1NC(=O)[C@H](CO)NC(=O)[C@H](Cc2ccccc2)N(C)C(=O)[C@H](CCCNC(=N)N)NC(=O)[C@H](Cc2ccccc2)NC(=O)CSC[C@@H](C(=O)NCC(N)=O)NC(=O)[C@H](Cc2ccccc2)N(C)C(=O)[C@H](CC(N)=O)NC(=O)[C@@H]2Cc3ccccc3CN2C(=O)[C@H](CO)NC(=O)[C@H](CCCNC(=N)N)NC(=O)[C@H](CCCCN)NC(=O)[C@H](Cc2ccc(O)cc2)NC(=O)[C@H](CC(N)=O)NC1=O, Synthetic cyclic peptide; also called FHR3 receptor ligand compound (C14)) [Cyclic peptide compound (C14)]	162 nM

Now look at this one.
Query block: Identify the reported Kd for the following entry. {CH2CO}-FR[NMeF]SKNY[Sar]RD[Tic]N[NMeF]CG-NH2 (thioether N-14; also: classes: D-residues, Synthetic cyclic peptide with non-natural residues; also called FHR3 receptor ligand compound (C12)) [Cyclic peptide compound (C12)]
Result block: 8 nM
